Target: Amine oxidase [flavin-containing] A (Homo sapiens, UniProt P21397)
Experiment: Inhibition of human MAO-A using p-tyramine as substrate assessed as production of H2O2 from p-tyramine at 100 uM incubated for 15 mins by Amplex Red MAO assay
Conditions: 0.25 h
PARAMETER: inhibition at 100 µM (%)

As a guide, the following entries are already answered.
>  <COMPOUND>
O=C1CCOc2cc(OCc3ccc(Cl)cc3)ccc21

>  <UNITS_LABEL>
%

>  <inhibition at 100 µM>
37

$$$$
>  <COMPOUND>
O=C1CCOc2cc(OCc3ccccc3F)ccc21

>  <UNITS_LABEL>
%

>  <inhibition at 100 µM>
35

$$$$
>  <COMPOUND>
CC1(C)CC(=O)c2ccc(OCc3ccccc3)cc2O1

>  <UNITS_LABEL>
%

>  <inhibition at 100 µM>
25

$$$$
>  <COMPOUND>
O=C1CCOc2cc(OCc3ccc(F)cc3)ccc21

>  <UNITS_LABEL>
%

>  <inhibition at 100 µM>
43

$$$$
>  <COMPOUND>
O=C1CCOc2cc(OCCCc3ccccc3)ccc21

>  <UNITS_LABEL>
%

>  <inhibition at 100 µM>
65

$$$$
>  <COMPOUND>
Cc1cccc(COc2ccc3c(c2)OCCC3=O)c1

>  <UNITS_LABEL>
%

>  <inhibition at 100 µM>
19

$$$$
>  <COMPOUND>
O=C1CCOc2cc(OCc3ccccc3)ccc21

>  <UNITS_LABEL>
%

>  <inhibition at 100 µM>
18

$$$$
>  <COMPOUND>
O=C1CCOc2cc(OCCc3ccccc3)ccc21

>  <UNITS_LABEL>
%

>  <inhibition at 100 µM>
58

$$$$
>  <COMPOUND>
O=C1CCOc2cc(OCc3ccc(Br)cc3)ccc21

>  <UNITS_LABEL>
%

>  <inhibition at 100 µM>
19

$$$$
>  <COMPOUND>
Cc1ccc(COc2ccc3c(c2)OC(C)(C)CC3=O)cc1

>  <UNITS_LABEL>
%

>  <inhibition at 100 µM>
25

$$$$

P = CC1(C)CC(=O)c2ccc(OCc3cccc(F)c3)cc2O1
Q = CC1(C)CC(=O)c2ccc(OCc3ccccc3F)cc2O1
Just tell me: smaller inhibition at 100 µM value, P or Q ? Answer = label.
P
(P: 18%, Q: 28%)

a = CC1(C)CC(=O)c2ccc(OCc3cccc(Br)c3)cc2O1
b = CC1(C)CC(=O)c2ccc(OCc3cccc(Cl)c3)cc2O1
Between these two entries, a and b , state which has the higher inhibition at 100 µM. Bench note: the answer is the label of the chosen record.
b

====

Species on record: Homo sapiens
Assay: Selectivity index, ratio of IC50 for human MAO-A to IC50 for human MA)-B by Amplex Red MAO assay
PARAMETER: Ratio IC50

>  <COMPOUND>
O=C1COc2cc(OCCCc3ccccc3)ccc21

>  <Ratio IC50>
1.9

$$$$

1 = O=C1COc2cc(OCc3ccccc3)ccc21
2 = O=C1COc2cc(OCCc3ccccc3)ccc21
3 = O=C1CCOc2cc(O)ccc21
# desc sort on Ratio IC50 across 3 molecules Reply: labels, ordered per the request.
2, 1, 3

====

Target: Amine oxidase [flavin-containing] B (Homo sapiens, UniProt P27338)
Assay: Inhibition of human MAO-B using p-tyramine as substrate assessed as production of H2O2 from p-tyramine incubated for 15 mins by Amplex Red MAO assay
pIC50: −log10 of the molar value.
PARAMETER: pIC50

Some solved entries appear below for comparison.
>  <COMPOUND>
O=C1CCOc2cc(OCc3ccccc3F)ccc21

>  <pIC50>
7.23

$$$$
>  <COMPOUND>
O=C1CCOc2cc(O)ccc21

>  <pIC50>
4.10

$$$$
>  <COMPOUND>
CC1(C)CC(=O)c2ccc(OCc3ccccc3)cc2O1

>  <pIC50>
7.01

$$$$
>  <COMPOUND>
CC1(C)CC(=O)c2ccc(OCc3cccc(F)c3)cc2O1

>  <pIC50>
7.18

$$$$
>  <COMPOUND>
O=C1CCOc2cc(OCCCc3ccccc3)ccc21

>  <pIC50>
4.67

$$$$

a = O=C1CCOc2cc(OCc3cccc(F)c3)ccc21
b = O=C1CCOc2cc(OCCc3ccccc3)ccc21
Which record shows the lower pIC50: the first, a , or the second, b ? Response format: the label of the selected entry.
b

A = O=C1CCOc2cc(OCc3ccc(Br)cc3)ccc21
B = CC1(C)CC(=O)c2ccc(OCc3ccc(C#N)cc3)cc2O1
C = O=C1COc2cc(OCCc3ccccc3)ccc21
Please put the entries in order of rising pIC50. // ordering of labels required in reply
C, B, A
(C: 5.67, B: 7.16, A: 7.67)

A = CC1(C)CC(=O)c2ccc(OCc3ccccc3F)cc2O1
B = O=C1CCOc2cc(OCc3cccc(Br)c3)ccc21
Pick the one with the larger pIC50: A vs B Could you answer with the label of the item you picked?
B

====

Target: UniProt:P21397
Sequence (P21397 whole entry): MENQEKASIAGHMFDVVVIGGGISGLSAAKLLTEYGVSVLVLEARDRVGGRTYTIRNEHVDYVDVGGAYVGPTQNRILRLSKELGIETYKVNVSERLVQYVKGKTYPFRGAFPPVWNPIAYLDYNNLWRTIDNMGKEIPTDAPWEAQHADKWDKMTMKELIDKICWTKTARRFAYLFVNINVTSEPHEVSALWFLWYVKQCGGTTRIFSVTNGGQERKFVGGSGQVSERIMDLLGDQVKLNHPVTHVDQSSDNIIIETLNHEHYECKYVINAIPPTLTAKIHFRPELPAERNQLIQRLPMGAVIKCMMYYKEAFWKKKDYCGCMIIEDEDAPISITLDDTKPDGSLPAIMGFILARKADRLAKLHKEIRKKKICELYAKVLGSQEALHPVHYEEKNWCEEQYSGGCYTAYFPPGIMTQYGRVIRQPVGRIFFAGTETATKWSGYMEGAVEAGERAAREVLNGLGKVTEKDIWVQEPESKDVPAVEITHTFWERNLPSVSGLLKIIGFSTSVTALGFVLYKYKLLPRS
Assay: Inhibition of human MAO-A using p-tyramine as substrate assessed as production of H2O2 from p-tyramine at 100 uM incubated for 15 mins by Amplex Red MAO assay
Details: 0.25 h
PARAMETER: inhibition at 100 µM (%)

Here are 5 compounds together with their reported answers.
>  <COMPOUND>
O=C1CCOc2cc(OCc3cccc(F)c3)ccc21

>  <SYSTEM_TESTED>
UniProt:P21397

>  <MEAS_VALUE>
26

$$$$
>  <COMPOUND>
CC1(C)CC(=O)c2ccc(OCc3ccc(C#N)cc3)cc2O1

>  <SYSTEM_TESTED>
UniProt:P21397

>  <MEAS_VALUE>
23

$$$$
>  <COMPOUND>
CC1(C)CC(=O)c2ccc(OCc3ccc(Cl)cc3)cc2O1

>  <SYSTEM_TESTED>
UniProt:P21397

>  <MEAS_VALUE>
28

$$$$
>  <COMPOUND>
Cc1ccc(COc2ccc3c(c2)OCCC3=O)cc1

>  <SYSTEM_TESTED>
UniProt:P21397

>  <MEAS_VALUE>
26

$$$$
>  <COMPOUND>
CC1(C)CC(=O)c2ccc(OCc3ccc(Br)cc3)cc2O1

>  <SYSTEM_TESTED>
UniProt:P21397

>  <MEAS_VALUE>
21

$$$$

1 = O=C1CCOc2cc(OCc3cccc(Cl)c3)ccc21
2 = Cc1cccc(COc2ccc3c(c2)OC(C)(C)CC3=O)c1
Hey, between 1 and 2 which has a smaller measured inhibition at 100 µM? Lab note: record the label of whichever item you select.
2

====

Biological target: Amine oxidase [flavin-containing] B (Homo sapiens, UniProt P27338)
Sequence (P27338 whole entry): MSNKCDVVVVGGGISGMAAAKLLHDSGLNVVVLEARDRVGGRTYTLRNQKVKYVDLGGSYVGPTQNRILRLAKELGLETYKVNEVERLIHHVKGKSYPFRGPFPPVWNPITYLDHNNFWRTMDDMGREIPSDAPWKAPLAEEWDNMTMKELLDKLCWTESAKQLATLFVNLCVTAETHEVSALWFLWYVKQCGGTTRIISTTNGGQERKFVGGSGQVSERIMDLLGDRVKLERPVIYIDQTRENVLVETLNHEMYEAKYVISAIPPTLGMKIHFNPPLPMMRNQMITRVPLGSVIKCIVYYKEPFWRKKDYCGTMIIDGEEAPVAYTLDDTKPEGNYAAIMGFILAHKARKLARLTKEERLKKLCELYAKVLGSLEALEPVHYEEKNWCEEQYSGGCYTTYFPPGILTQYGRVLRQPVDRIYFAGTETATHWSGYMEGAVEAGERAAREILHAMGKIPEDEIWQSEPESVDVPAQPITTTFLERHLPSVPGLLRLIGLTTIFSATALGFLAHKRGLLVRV
Experiment: Inhibition of human MAO-B using p-tyramine as substrate assessed as production of H2O2 from p-tyramine incubated for 15 mins by Amplex Red MAO assay
PARAMETER: IC50 (nM)

>  <COMPOUND>
CC1(C)CC(=O)c2ccc(OCc3cccc(Cl)c3)cc2O1

>  <SYSTEM_TESTED>
Amine oxidase [flavin-containing] B (Homo sapiens, UniProt P27338)

>  <IC50 / nM>
55.4

$$$$
>  <COMPOUND>
O=C1CCOc2cc(OCc3ccccc3)ccc21

>  <SYSTEM_TESTED>
Amine oxidase [flavin-containing] B (Homo sapiens, UniProt P27338)

>  <IC50 / nM>
57.4

$$$$

a = CC1(C)CC(=O)c2ccc(OCc3cccc(Br)c3)cc2O1
b = Cc1cccc(COc2ccc3c(c2)OC(C)(C)CC3=O)c1
c = O=C1COc2cc(OCCCc3ccccc3)ccc21
Arrange these 3 molecules in increasing order of IC50. I would appreciate it if you listed the labels in the requested order.
a, b, c
(a: 52.2 nM, b: 98.3 nM, c: 20500 nM)
